Provenance of the data: patent US20150368338A1

Biological target: T1, IFN-αF (human, UniProt P01568 24-189)
T1 construct: also called IFN-α21; alpha F
T1 chain: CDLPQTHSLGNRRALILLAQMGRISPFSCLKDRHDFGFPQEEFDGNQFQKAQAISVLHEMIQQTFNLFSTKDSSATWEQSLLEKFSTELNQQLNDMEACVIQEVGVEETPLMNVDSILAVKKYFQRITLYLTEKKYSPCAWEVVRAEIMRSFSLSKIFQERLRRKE
Test: ProteOn, one antigen concentration
pKd: −log10 of the molar value.

binder	pKd
IFWM3291 (antibody, V domains shown, VH IFWH591, VL IFWL999; converted mAb; also called IFWB3026) VH: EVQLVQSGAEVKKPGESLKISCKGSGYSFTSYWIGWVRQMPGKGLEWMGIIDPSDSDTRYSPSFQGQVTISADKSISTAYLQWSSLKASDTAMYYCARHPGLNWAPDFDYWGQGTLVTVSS VL: DIQMTQSPSSLSASVGDRVTITCRASQSIDEFLNWYQQKPGKAPKLLIYFASSLQSGVPSRFSGSGSGTDFTLTISSLQPEDFATYYCQQAHSFPLTFGQGTKVEIK	10.29
IFWM3341 (antibody, V domains shown, VH IFWH624, VL IFWL991; converted mAb; also called IFWB3076) VH: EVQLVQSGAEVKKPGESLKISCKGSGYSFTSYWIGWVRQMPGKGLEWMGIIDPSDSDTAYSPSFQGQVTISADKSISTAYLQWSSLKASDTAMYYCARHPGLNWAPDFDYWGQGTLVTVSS VL: DIQMTQSPSSLSASVGDRVTITCRASQSINRFLNWYQQKPGKAPKLLIYAASSLQSGVPSRFSGSGSGTDFTLTISSLQPEDFATYYCQQAIDLPFTFGQGTKVEIK	10.06
IFWM3329 (antibody, V domains shown, VH IFWH591, VL IFWL1067; converted mAb; also called IFWB3064) VH: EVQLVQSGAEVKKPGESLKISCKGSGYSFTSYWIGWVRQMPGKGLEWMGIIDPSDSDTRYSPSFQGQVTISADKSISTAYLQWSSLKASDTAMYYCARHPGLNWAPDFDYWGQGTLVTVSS VL: DIQMTQSPSSLSASVGDRVTITCRASQSIRNNNLNWYQQKPGKAPKLLIHWASSLQSGVPSRFSGSGSGTDFTLTISSLQPEDFATYYCQQGYDTPFTFGQGTKVEIK	10.29
